B1: Gamma-crystallin C, residues 4 to 79; numbered along this chain, P07315 (parent)
chain: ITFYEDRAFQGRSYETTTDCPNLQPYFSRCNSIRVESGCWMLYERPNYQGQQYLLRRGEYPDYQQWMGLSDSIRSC

# Variants of: B1
# method notes: abundance fitness (aPCA) (normalised: wild type 0, dead -1); higher = more abundant; growth selection in yeast, the domain comes from the species named
# stated conditions: Homo sapiens
Each entry below lists one item and its recorded abundance fitness value.
Respond using a number only.

Worked set:
## Input Give abundance fitness for T18D
## Output 0.169

## Input Give abundance fitness for A8H
## Output 0.016

## Input Give abundance fitness for V35I
## Output -0.916

## Input Give abundance fitness for G68T
## Output 0.068

## Input Give abundance fitness for S75L
## Output 0.044

## Input Give abundance fitness for Q10G
## Output -0.002

## Input Give abundance fitness for R7S
## Output -0.117

## Input Give abundance fitness for S37G
## Output -0.061

---
## Input Give abundance fitness for P61D
## Output -0.034

## Input Give abundance fitness for Y43L
## Output -0.889

## Input Give abundance fitness for I33M
## Output 0.191

## Input Give abundance fitness for D19Q
## Output -0.032

## Input Give abundance fitness for G68L
## Output -0.027

## Input Give abundance fitness for Y4S
## Output -0.725

## Input Give abundance fitness for Y53A
## Output -0.127

## Input Give abundance fitness for Q49N
## Output -0.053

## Input Give abundance fitness for S70I
## Output 0.09
